test-target: Neurogenic locus notch homolog protein 3 (Homo sapiens) (UniProt Q9UM47)
Sequence (Q9UM47 whole entry, looked up): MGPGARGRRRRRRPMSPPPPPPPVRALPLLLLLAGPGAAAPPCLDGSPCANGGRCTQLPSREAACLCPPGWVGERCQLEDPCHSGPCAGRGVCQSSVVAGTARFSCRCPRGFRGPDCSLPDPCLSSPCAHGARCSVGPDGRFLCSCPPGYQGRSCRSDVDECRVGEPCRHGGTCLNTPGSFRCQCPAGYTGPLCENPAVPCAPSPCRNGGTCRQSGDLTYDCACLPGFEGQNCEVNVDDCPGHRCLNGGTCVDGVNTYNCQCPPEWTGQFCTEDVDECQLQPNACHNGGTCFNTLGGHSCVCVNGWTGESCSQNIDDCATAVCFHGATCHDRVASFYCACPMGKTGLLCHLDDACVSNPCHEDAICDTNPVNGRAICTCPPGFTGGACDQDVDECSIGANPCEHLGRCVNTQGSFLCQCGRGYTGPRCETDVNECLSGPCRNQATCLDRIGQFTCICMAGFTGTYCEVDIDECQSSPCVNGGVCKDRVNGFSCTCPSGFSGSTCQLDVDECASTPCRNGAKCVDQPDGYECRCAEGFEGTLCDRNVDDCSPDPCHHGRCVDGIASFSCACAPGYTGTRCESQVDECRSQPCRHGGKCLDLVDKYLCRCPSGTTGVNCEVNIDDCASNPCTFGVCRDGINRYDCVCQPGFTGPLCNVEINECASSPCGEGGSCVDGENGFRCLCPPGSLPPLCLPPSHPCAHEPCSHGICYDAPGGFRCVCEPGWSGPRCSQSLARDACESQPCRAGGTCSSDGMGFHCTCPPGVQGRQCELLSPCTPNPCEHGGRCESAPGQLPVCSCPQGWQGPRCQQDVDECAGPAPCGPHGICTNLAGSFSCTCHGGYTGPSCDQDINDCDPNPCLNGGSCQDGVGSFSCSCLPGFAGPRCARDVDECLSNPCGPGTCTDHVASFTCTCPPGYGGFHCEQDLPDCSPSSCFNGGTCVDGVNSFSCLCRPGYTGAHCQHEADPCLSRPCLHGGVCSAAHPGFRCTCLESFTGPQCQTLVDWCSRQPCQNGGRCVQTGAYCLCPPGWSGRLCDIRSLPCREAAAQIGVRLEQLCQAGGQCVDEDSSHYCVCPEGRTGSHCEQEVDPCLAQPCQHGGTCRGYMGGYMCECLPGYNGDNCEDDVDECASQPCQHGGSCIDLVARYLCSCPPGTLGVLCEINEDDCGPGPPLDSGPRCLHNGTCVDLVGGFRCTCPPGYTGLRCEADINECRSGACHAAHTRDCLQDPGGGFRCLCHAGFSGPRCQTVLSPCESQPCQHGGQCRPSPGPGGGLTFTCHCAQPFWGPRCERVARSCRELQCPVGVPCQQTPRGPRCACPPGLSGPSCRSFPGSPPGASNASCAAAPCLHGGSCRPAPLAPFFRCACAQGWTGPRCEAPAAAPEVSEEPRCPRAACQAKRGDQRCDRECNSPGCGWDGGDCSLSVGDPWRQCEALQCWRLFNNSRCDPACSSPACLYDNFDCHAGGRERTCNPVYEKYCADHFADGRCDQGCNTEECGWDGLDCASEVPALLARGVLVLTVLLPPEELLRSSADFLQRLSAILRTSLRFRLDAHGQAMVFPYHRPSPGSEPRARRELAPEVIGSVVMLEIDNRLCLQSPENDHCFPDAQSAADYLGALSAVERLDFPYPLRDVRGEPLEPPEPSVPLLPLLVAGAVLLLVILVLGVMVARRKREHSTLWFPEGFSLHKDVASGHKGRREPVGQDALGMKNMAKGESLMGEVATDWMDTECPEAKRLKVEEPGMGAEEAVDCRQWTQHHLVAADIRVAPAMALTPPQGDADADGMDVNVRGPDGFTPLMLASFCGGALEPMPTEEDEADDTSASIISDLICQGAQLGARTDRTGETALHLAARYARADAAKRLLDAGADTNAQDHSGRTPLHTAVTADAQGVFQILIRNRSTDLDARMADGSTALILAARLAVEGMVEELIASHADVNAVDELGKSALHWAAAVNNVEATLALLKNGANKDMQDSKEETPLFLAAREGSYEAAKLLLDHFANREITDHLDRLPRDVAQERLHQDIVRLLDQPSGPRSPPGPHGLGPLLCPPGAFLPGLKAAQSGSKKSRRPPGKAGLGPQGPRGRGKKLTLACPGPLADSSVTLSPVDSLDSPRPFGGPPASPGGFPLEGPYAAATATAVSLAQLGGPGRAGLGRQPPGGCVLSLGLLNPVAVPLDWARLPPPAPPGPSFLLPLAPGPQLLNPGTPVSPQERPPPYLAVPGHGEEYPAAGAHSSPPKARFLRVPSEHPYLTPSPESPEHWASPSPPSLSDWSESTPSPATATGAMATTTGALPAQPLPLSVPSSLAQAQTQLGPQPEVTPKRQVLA
experimental-details: NOTCH3 binders on small-molecule microarray, primary screen, biochemical, 635/667 nm fluorescence (AID 1096)
test-settings: NOTCH3 binding, 635 nm fluorescence, higher = more signal
measure: composite z-score
Provide a numeric answer; units are not to be included.

Lab book: composite z-score of "COc1ccc(O[C@H]2C=C[C@@H](c3ccccc3)O[C@@H]2CON=CC[C@@H]2C=C[C@H](OC(C)=O)[C@@H](COC(C)=O)O2)cc1" noted as -0.22

Lab book: composite z-score of "O=C1[C@H]2[C@H]3[C@H](O)[C@H](O)CC(=NOC[C@@H](O)COCc4ccco4)[C@H]3CC[C@H]2C(=O)N1C[C@@H]1CCCO1" noted as 0.28

Lab book: composite z-score of "O=C1C[C@@H](O)[C@@H](O)[C@@H]2[C@@H]3C(=O)N(c4cccc(Oc5ccccc5)c4)C(=O)[C@@H]3CC[C@H]12" noted as 1.02

Lab book: composite z-score of "CO[C@H]1COC(=O)[C@H](C)NC(=O)CC=C[C@@H](C)[C@H](OC)COC(=O)[C@@H](OCc2ccccc2)C=C[C@@H]1C" noted as -0.458

Lab book: composite z-score of "COC(=O)CC=C[C@@H](C)[C@@H](C=NO[C@@H](C)c1cn([C@H](CO)Cc2ccccc2)nn1)OC" noted as 0.627

Lab book: composite z-score of "CO[C@@H]1C=CCC(=O)N2CCC[C@H]2C(=O)OC[C@@H](C)C(=O)OC[C@H]1C" noted as -0.0741

Lab book: composite z-score of "CO[C@@H]1COC(=O)[C@H](CCSC)NC(=O)CC=C[C@@H](C)COC(=O)[C@H](C)NC(=O)CC=C[C@H]1C" noted as 0.989

Lab book: composite z-score of "O=C1C[C@@H](O)[C@@H](O)[C@@H]2[C@@H]3C(=O)N(Cc4ccc5c(c4)OCO5)C(=O)[C@@H]3CC[C@H]12" noted as 0.406

Lab book: composite z-score of "O=c1n(Cc2cc3c(cc2Cl)OCO3)c(=O)n2n1CC[C@@H]1C(=NOCc3ccccc3)[C@H]3O[C@H]3[C@@H](O)[C@@H]12" noted as 0.68

Lab book: composite z-score of "CC(=O)OC[C@H]1O[C@H](C#Cc2ccccc2)C=C[C@@H]1OC(C)=O" noted as 0.812

Lab book: composite z-score of C=C(C)C(=O)OCC1CN2[C@@H](CC[C@@H](C)[C@@H]2c2ccc(Br)cc2)C(=O)O1 (stereo partly specified) noted as 0.947

Lab book: composite z-score of "CO[C@H]1COC(=O)[C@@H](C)COC(=O)[C@H](C)NC(=O)CC=C[C@H]1C" noted as 0.195

Lab book: composite z-score of "O=C1[C@H]2[C@H]3[C@H](O)[C@H](O)CC(=NOC[C@@H](O)COCc4ccco4)[C@H]3CC[C@H]2C(=O)N1Cc1ccccc1" noted as -0.309

Lab book: composite z-score of O=C1CCCC=C1C(CCc1ccccc1)OC(=O)c1ccc(Br)cc1 (stereo unspecified) noted as -0.445

Lab book: composite z-score of "O=c1n(-c2ccccc2)c(=O)n2n1CC[C@@H]1C(=NOCc3ccccc3)[C@H]3O[C@H]3[C@@H](O)[C@@H]12" noted as 0.116

Lab book: composite z-score of "COc1cccc([C@H]2Oc3ccc(OC)cc3C(=NO[C@@H](C)c3cn([C@H](CO)Cc4ccccc4)nn3)[C@@H]2O)c1" noted as -0.367

----------
experimental-details: MM1S cell viability effects, profiling panel, calcein-AM fluorescence, 48 h, basal (AID 1165);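 further: viability of MM1S multiple myeloma cells under basal unstimulated conditions; test concentration not given here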
test-settings: higher = more signal
measure: z-score
Provide a numeric answer; units are not to be included.

Lab book: z-score of "CCOC(=O)NN=C1C[C@@H](O)[C@@H](O)[C@@H]2[C@@H]3C(=O)N(c4cccc(Oc5ccccc5)c4)C(=O)[C@@H]3CC[C@@H]12" noted as -0.454

Lab book: z-score of "COc1cccc([C@H]2Oc3ccc(OC)cc3C(=NOC[C@@H](C)[C@H](OCc3ccccc3)C(C)C)[C@@H]2O)c1" noted as -0.596

Lab book: z-score of "C#CCCCON=C1C[C@@H](O)[C@@H](O)[C@@H]2[C@@H]3C(=O)N(c4ccc(F)cc4F)C(=O)[C@@H]3CC[C@@H]12" noted as 0.344

Lab book: z-score of "O=c1n(Cc2cc3c(cc2Cl)OCO3)c(=O)n2n1CC[C@@H]1C(=NOC[C@@H](O)COCc3ccco3)[C@H]3O[C@H]3[C@@H](O)[C@@H]12" noted as 0.0423

Lab book: z-score of "CO[C@H]1COC(=O)CC=C[C@H](C)[C@@H](OC)COC(=O)[C@@H](C)COC(=O)CC=C[C@@H]1C" noted as 0.242

Lab book: z-score of "COc1ccc(C#C[C@@H]2C=C[C@H](OC(C)=O)[C@@H](COC(C)=O)O2)cc1" noted as -3.54

Lab book: z-score of "CC(C)=CCCC(C)=CCON=C1C[C@@H](O)[C@@H](O)[C@@H]2[C@@H]3C(=O)N(C(C)(C)C)C(=O)[C@@H]3CC[C@H]12" noted as 0.387

----------
experimental-details: small-molecule microarray binders of probe aLefty2, primary screen, biochemical, biotinylated probe, 635/667 nm fluorescence (AID 1094);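 further: score merges spot fluorescence near 667 nm with spot signal-to-noise ratio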
test-settings: higher = more signal
# label = 1.0 if composite z-score >= -0.08 else 0.0

### Prompt Quick check: does "CCCCC#C[C@@H]1C=C[C@H](Oc2cc(OC)c(OC)c(OC)c2)[C@@H](COC(=O)OCC)O1" have composite z-score greater than or equal to -0.08?
### Response 0.0

### Prompt Quick check: does O=C1OCCC=C1C(O)CCc1ccccc1 (stereo not given) have composite z-score greater than or equal to -0.08?
### Response 1.0

### Prompt Quick check: does "COc1cccc([C@H]2Oc3ccc(OC)cc3C(=NO[C@@H](C)c3cn([C@H](CO)Cc4ccccc4)nn3)[C@@H]2O)c1" have composite z-score greater than or equal to -0.08?
### Response 0.0

### Prompt Quick check: does Cc1cc2c(nc1C)CCCCN2CC(C)ON=C[C@@H](C)[C@H](OCc1ccccc1)C(C)C (stereo not given in full) have composite z-score greater than or equal to -0.08?
### Response 0.0

----------
experimental-details: FRG1 promoter luciferase signal modulators, primary screen, FRG1 inhibition for FSHD, cell-based, C2C12 myotubes, firefly/Renilla luciferase, luminescence (AID 1084)
test-settings: higher = more signal, called active from +8 up or from −8 down
measure: z-score
Provide a numeric answer; units are not to be included.

Lab book: z-score of "COC(=O)[C@@H]1CC[C@H](C)[C@@H](c2ccc(C)cc2)N1C(=O)c1ccc(C=NO[C@@H](C)c2cn([C@H](CO)Cc3ccccc3)nn2)cc1" noted as -3.25

Lab book: z-score of CCOC(=O)[C@H](CC(C)C)NC(=O)CCC1CC(OC(=O)NCCc2ccc(F)cc2)CC2(CCCC(COC(=O)NCCOc3ccccc3)O2)O1 (some centres undefined) noted as 1.99

Lab book: z-score of "CCCNC(=O)OC[C@H]1O[C@H](CCON=Cc2ccc(C(=O)N3[C@H](c4ccc(C)cc4)[C@@H](C)CC[C@H]3C(=O)OC)cc2)C=C[C@@H]1Oc1ccc(OC)cc1" noted as 0.868

Lab book: z-score of "CC(CCN1CCCCc2nc(C)c(C)cc21)=NOC[C@@H](C)[C@H](OCc1ccccc1)C(C)C" noted as -0.688

Lab book: z-score of "CCOC(=O)C1=NO[C@@]2(C=C(Br)C3(OCCCO3)[C@H]3O[C@H]32)C1" noted as 0.0274

Lab book: z-score of "O=C1[C@H]2[C@H]3[C@H](O)[C@H](O)CC(=NOCc4ccccc4)[C@H]3CC[C@H]2C(=O)N1Cc1ccc2c(c1)OCO2" noted as 0.0017

Lab book: z-score of "COC(=O)[C@@H]1CC[C@H](C)[C@@H](c2ccc(C)cc2)N1C(=O)c1ccc(C=NO[C@H](C)c2cn([C@@H]3COC[C@H]3O)nn2)cc1" noted as 0.191

Lab book: z-score of "CC(C)CCN1CCc2nc(COc3ccccc3)c3c(c2C1)CO[C@@H](C)C3" noted as 0.0476

Lab book: z-score of COC(=O)[C@H](C)NC(=O)CCC1CC(OC(=O)NCCc2ccc(F)cc2)CC2(CCCC(COC(=O)NCc3cccc(C(F)(F)F)c3)O2)O1 (some centres undefined) noted as 0.286

Lab book: z-score of "O=C1[C@H]2[C@H]3[C@H](O)[C@H](O)CC(=NOC[C@@H](O)COCc4ccco4)[C@@H]3CC[C@H]2C(=O)N1C[C@@H]1CCCO1" noted as -0.218

Lab book: z-score of CC(=O)OC[C@H]1OC(ON=CC[C@@H]2C=C[C@H](OC(C)=O)[C@@H](COC(C)=O)O2)[C@H](OC(C)=O)[C@@H](OC(C)=O)[C@@H]1OC(C)=O (some centres undefined) noted as -0.0946

Lab book: z-score of CCOC(=O)[C@H](Cc1ccccc1)NC(=O)CCC1CC(OC(=O)NCCc2ccc(F)cc2)CC2(CCCC(COC(=O)NCCc3ccc(Cl)cc3)O2)O1 (some centres undefined) noted as 0.301

Lab book: z-score of "CC(C)=CCCC(C)=CCON=C1C[C@@H](O)[C@@H](O)[C@@H]2[C@@H]3C(=O)N(C(C)(C)C)C(=O)[C@@H]3CC[C@H]12" noted as 0.132

Lab book: z-score of "CC(C)(C)N1C(=O)[C@H]2[C@H]3[C@H](O)C=CC(=O)[C@@H]3CC[C@H]2C1=O" noted as -0.757
